Reported values of NFκB activation EC50 (SEAP, OD655) in HEK293 blue CD40 NFκB reporter cells for individual entries
# TGT: human CD40 on cells (human, UniProt P25942 21-277)
# Sequence (P25942 21-277 limits assumed): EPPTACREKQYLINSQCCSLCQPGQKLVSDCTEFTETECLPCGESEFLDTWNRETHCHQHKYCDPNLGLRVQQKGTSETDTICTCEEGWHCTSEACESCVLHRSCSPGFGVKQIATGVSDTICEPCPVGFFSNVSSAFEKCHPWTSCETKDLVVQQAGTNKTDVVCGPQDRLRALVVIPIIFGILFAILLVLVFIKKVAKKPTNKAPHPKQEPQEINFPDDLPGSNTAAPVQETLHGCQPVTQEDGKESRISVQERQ
# ASSAY_DETAILS: cell-based or functional assay
Enter the number, and then the unit.

BINDER: Humanized muAb9 #6 (antibody, V domains shown) VH: EVQLQESGPGLVKPSETLSLTCTVSGYSISSNYYWNWIRQPPGKGLEWMGYIRYDGSNNYNPSLKSRVTISRDTSKNQFSLKLSSVTAADTAVYYCARLDYWGQGTTVTVSS VL: DAVMTQTPLSLSVTPGQPASISCRSSQSLENTNGNTFLNWYLQKPGQSPQLLIYRVSNRFSGVPDRFSGSGSGTDFTLKISRVEAEDVGVYYCLQVTHVPFTFGQGTKLEIK
REPORTED_VALUE: 5.95 µg/mL

The record that follows has no NFκB activation EC50 (SEAP, OD655) in HEK293 blue CD40 NFκB reporter cells shown yet.
Reported NFκB activation EC50 (SEAP, OD655) in HEK293 blue CD40 NFκB reporter cells of Humanized muAb9 #1 (antibody, V domains shown) VH: EVQLQESGPGLVKPSETLSLTCTVSGYSITSNYYWNWIRQPPGKGLEWMGYIRYDGSNNYNPSLKNRITISRDTSKNQFSLKLSSVTAADTAVYYCARLDYWGQGTTVTVSS VL: DAVMTQTPLSLSVTPGQPASISCRSSQSLENTNGNTFLNWFLQKPGQSPQLLIYRVSNRFSGVPDRFSGSGSGTDFTLKISRVEAEDVGVYFCLQVTHVPFTFGQGTKLEIK : 0.19 µg/mL
